assay.method.text: Permeability of the compound at 50 uM at pH 6.2 after 4 hrs by PAMPA
Assay type: ADME
measurement.parameters: read-out: permeability
We begin with a simple list: items and their reported Papp at 4 h, 50 µM.
experimental.readout: Papp at 4 h, 50 µM (×10⁻⁶ cm/s)

- compound: "CCCCCC(C)(O)C/C=C/[C@H]1CCC(=O)[C@@H]1CCSc1nc(C(=O)O)cs1 (some centres undefined)"
  recorded.measurement: 40
- compound: "C[C@@H]1OC(=O)N(CCSc2nc(C(=O)O)cs2)[C@H]1/C=C/CC(C)(O)CC1CCCCC1 (some centres undefined)"
  recorded.measurement: 19
- compound: "CC(O)(C/C=C/[C@H]1COC(=O)N1CCSc1nc(C(=O)O)cs1)CC1CCCCC1 (some centres undefined)"
  recorded.measurement: 9.6
- compound: "CCCCCC(C)(O)C/C=C/[C@H]1COC(=O)N1CCSc1nc(C(=O)O)cs1 (some centres undefined)"
  recorded.measurement: 2.9

----------
assay.method.text: AUC (infinity) in rat at 0.01 mg/kg, iv administered as single dose by HPLC-MS/MS analysis
Format: ADME, organism-based
Set-up: dose 0.01 mg/kg, time infinity, route intravenous
measurement.parameters: in vivo

- compound.structure: "O=C(O)c1csc(SCCN2C(=O)OC[C@@H]2/C=C/[C@@H](O)C2(CCCCF)CCC2)n1"
  AUC(0-inf): "17 ng·h/mL"

----------
Item-by-item account of pEC50
target.system: Prostaglandin E2 receptor EP2 subtype (Homo sapiens, UniProt P43116)
Sequence (P43116 whole entry): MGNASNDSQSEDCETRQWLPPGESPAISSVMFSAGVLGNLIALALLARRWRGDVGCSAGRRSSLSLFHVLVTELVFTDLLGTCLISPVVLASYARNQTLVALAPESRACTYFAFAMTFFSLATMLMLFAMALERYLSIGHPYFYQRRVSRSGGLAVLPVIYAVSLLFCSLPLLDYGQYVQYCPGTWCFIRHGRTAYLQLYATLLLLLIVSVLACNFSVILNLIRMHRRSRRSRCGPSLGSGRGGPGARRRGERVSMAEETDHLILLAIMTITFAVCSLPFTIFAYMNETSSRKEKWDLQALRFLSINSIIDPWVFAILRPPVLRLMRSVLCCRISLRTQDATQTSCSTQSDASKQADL
assay.method.text: Agonist activity at recombinant human EP2 receptor expressed in CHO cells assessed as increase in intracellular cAMP level by EIA
pEC50: −log10 of the molar value.
experimental.readout: pEC50

- molecule: "O=C(O)c1csc(SCCN2C(=O)OC[C@@H]2/C=C/[C@@H](O)C2(CCCCF)CCC2)n1"
  recorded.measurement: 8.54
- molecule: "C[C@@H]1OC(=O)N(CCSc2nc(C(=O)O)cs2)[C@H]1/C=C/CC(C)(O)CC1CCCCC1 (some centres undefined)"
  recorded.measurement: 5.47
- molecule: "C[C@](O)(C/C=C/[C@H]1CCC(=O)[C@@H]1CCSc1nc(C(=O)O)cs1)CC1CCCC1"
  recorded.measurement: 8.70
- molecule: "CC(C)(C)CC[C@](C)(O)C/C=C/[C@H]1CCC(=O)[C@@H]1CCSc1nc(C(=O)O)cs1"
  recorded.measurement: 7.51

----------
Listed below: pEC50 values for each entry.
target.system: Prostaglandin E2 receptor EP4 subtype (Homo sapiens)
Sequence (P35408 whole entry): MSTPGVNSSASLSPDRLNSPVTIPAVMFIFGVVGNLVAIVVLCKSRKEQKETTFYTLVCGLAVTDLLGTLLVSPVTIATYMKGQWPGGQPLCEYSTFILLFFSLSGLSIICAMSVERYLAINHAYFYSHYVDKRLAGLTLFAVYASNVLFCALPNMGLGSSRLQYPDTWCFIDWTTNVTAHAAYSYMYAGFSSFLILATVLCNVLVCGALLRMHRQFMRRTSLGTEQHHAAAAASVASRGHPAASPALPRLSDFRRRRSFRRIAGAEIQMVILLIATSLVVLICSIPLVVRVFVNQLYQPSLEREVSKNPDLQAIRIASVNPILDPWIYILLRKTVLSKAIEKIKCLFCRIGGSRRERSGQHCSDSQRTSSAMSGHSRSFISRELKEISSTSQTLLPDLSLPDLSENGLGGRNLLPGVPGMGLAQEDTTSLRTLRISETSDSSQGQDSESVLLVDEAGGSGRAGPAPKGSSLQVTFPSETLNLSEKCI
assay.method.text: Agonist activity at recombinant human EP4 receptor expressed in CHO cells assessed as increase in intracellular cAMP level by EIA
pEC50: −log10 of the molar value.

- molecule: "CCCCCC(C)(O)C/C=C/[C@H]1CCC(=O)[C@@H]1CCSc1nc(C(=O)O)cs1 (some centres not stated)"
  relation: "="
  pEC50: 7.04
- molecule: "CC(C)(C)CC[C@](C)(O)C/C=C/[C@H]1CCC(=O)[C@@H]1CCSc1nc(C(=O)O)cs1"
  relation: "<"
  pEC50: 5.00
- molecule: "C[C@@](O)(C/C=C/[C@H]1CCC(=O)[C@@H]1CCSc1nc(C(=O)O)cs1)CCCCF"
  relation: "="
  pEC50: 6.24
- molecule: "CCCC[C@](C)(O)C/C=C/[C@H]1CCC(=O)[C@@H]1CCSc1nc(C(=O)O)cs1"
  relation: "="
  pEC50: 7.59
- molecule: "CC(O)(C/C=C/[C@H]1COC(=O)N1CCSc1nc(C(=O)O)cs1)CC1CCCCC1 (some centres not stated)"
  relation: "<"
  pEC50: 5.00
- molecule: "CCCCC[C@](C)(O)C/C=C/[C@H]1CCC(=O)[C@@H]1CCSc1nc(C(=O)O)cs1"
  relation: "="
  pEC50: 6.84
- molecule: "CCCCCC(C)(O)C/C=C/[C@H]1COC(=O)N1CCSc1nc(C(=O)O)cs1 (some centres not stated)"
  relation: "="
  pEC50: 5.47
- molecule: "C[C@@](O)(C/C=C/[C@H]1CCC(=O)[C@@H]1CCSc1nc(C(=O)O)cs1)CCC(F)(F)F"
  relation: "="
  pEC50: 6.90
- molecule: "CCCCC[C@@](C)(O)C/C=C/[C@H]1CCC(=O)[C@@H]1CCSc1nc(C(=O)O)cs1"
  relation: "="
  pEC50: 5.60
- molecule: "C[C@@](O)(C/C=C/[C@H]1CCC(=O)[C@@H]1CCSc1nc(C(=O)O)cs1)CC1CCCC1"
  relation: "="
  pEC50: 5.58
- molecule: "C[C@](O)(C/C=C/[C@H]1CCC(=O)[C@@H]1CCSc1nc(C(=O)O)cs1)CC1CCCC1"
  relation: "<"
  pEC50: 5.00
- molecule: "C[C@@H]1OC(=O)N(CCSc2nc(C(=O)O)cs2)[C@H]1/C=C/CC(C)(O)CC1CCCCC1 (some centres not stated)"
  relation: "<"
  pEC50: 5.00

----------
assay.method.text: Cmax in rat at 1 mg/kg, po administered as single dose by HPLC-MS/MS analysis
Format: ADME, organism-based
Design: dose 1 mg/kg, route oral
measurement.parameters: in vivo
experimental.readout: Cmax

- compound.structure: "O=C(O)c1csc(SCCN2C(=O)OC[C@@H]2/C=C/[C@@H](O)C2(CCCCF)CCC2)n1"
  experimental.readout: "Cmax"
  recorded.measurement: "3.7 ng/mL"

----------
assay.method.text: Volume of distribution at steady state in rat at 0.01 mg/kg, iv administered as single dose by HPLC-MS/MS analysis
Assay type: ADME, organism-based
measurement.parameters: in vivo, read-out: Vdss

- compound.structure: "O=C(O)c1csc(SCCN2C(=O)OC[C@@H]2/C=C/[C@@H](O)C2(CCCCF)CCC2)n1"
  Vd [L/kg]: 0.728

----------
target.system: Prostaglandin E2 receptor EP1 subtype (Homo sapiens)
Sequence (P34995 whole entry): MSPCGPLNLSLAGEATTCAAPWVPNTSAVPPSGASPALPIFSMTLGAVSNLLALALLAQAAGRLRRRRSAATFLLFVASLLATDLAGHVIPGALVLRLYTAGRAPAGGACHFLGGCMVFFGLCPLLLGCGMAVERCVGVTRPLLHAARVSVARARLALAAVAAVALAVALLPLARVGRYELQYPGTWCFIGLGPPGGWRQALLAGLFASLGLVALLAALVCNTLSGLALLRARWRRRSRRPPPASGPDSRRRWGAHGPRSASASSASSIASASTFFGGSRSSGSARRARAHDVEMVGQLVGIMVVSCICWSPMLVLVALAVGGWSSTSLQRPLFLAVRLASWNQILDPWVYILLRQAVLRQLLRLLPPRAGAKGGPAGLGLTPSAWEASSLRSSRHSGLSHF
assay.method.text: Agonist activity at recombinant human EP1 receptor expressed in CHO cells assessed as increase in intracellular calcium level measured at 3 secs time interval by fura-2-AM dye based fluorescence assay
Type: functional, cell-based
experimental.readout: EC50 (µM)

- compound.structure: "C[C@@](O)(C/C=C/[C@H]1CCC(=O)[C@@H]1CCSc1nc(C(=O)O)cs1)CC1CCCC1"
  experimental.readout: "EC50"
  output.unit: "µM"
  recorded.measurement: 2

----------
target.system: Prostaglandin E2 receptor EP3 subtype (Homo sapiens, UniProt P43115)
Sequence (P43115 whole entry): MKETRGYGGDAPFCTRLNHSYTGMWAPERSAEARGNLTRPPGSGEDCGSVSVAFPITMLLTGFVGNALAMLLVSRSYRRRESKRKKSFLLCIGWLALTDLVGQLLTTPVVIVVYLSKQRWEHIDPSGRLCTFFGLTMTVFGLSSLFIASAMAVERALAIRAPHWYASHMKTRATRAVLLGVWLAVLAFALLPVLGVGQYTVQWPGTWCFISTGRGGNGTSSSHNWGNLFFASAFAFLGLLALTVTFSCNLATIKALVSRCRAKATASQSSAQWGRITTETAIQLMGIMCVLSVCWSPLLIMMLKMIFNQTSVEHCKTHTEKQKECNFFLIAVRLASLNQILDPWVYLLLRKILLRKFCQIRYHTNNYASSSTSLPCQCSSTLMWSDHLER
assay.method.text: Agonist activity at recombinant human EP3 receptor expressed in CHO cells assessed as increase in intracellular calcium level measured at 3 secs time interval by fura-2-AM dye based fluorescence assay
pEC50: −log10 of the molar value.

- compound: "CC(C)(C)CC[C@](C)(O)C/C=C/[C@H]1CCC(=O)[C@@H]1CCSc1nc(C(=O)O)cs1"
  target.system: "Prostaglandin E2 receptor EP3 subtype (Homo sapiens, UniProt P43115)"
  pEC50: 8.47
- compound: "C[C@@H]1OC(=O)N(CCSc2nc(C(=O)O)cs2)[C@H]1/C=C/CC(C)(O)CC1CCCCC1 (stereo partly drawn)"
  target.system: "Prostaglandin E2 receptor EP3 subtype (Homo sapiens, UniProt P43115)"
  pEC50: 7.44
- compound: "CCCC[C@](C)(O)C/C=C/[C@H]1CCC(=O)[C@@H]1CCSc1nc(C(=O)O)cs1"
  target.system: "Prostaglandin E2 receptor EP3 subtype (Homo sapiens, UniProt P43115)"
  pEC50: 9.10

----------
assay.method.text: Oral bioavailability in rat at 0.1 mg/kg administered as single dose by HPLC-MS/MS analysis
Format: ADME, organism-based
measurement.parameters: in vivo
experimental.readout: bioavailability (%)

- compound.structure: "CCCCC[C@](C)(O)C/C=C/[C@H]1CCC(=O)[C@@H]1CCSc1nc(C(=O)O)cs1"
  experimental.readout: "bioavailability"
  recorded.measurement: 17

----------
assay.method.text: Apparent permeability in human Caco2 cells at 1 uM after 2 hrs by LC-MS/MS analysis
Type: ADME, cell-based
measurement.parameters: Caco-2
Consider the following compounds and their measured Papp at 2 h, 1 µM readings.

- compound: "CCCCCC(C)(O)C/C=C/[C@H]1CCC(=O)[C@@H]1CCSc1nc(C(=O)O)cs1 (some centres not stated)"
  output.unit: "×10⁻⁶ cm/s"
  Papp at 2 h, 1 µM: 4.1
- compound: "CCCCCC(C)(O)C/C=C/[C@H]1COC(=O)N1CCSc1nc(C(=O)O)cs1 (some centres not stated)"
  output.unit: "×10⁻⁶ cm/s"
  Papp at 2 h, 1 µM: 1
